Tested on: HCC-2998 colon
Assay: NCI tumour cell line growth inhibition, 48 h; in the data active means GI50 below about 0.43 µM; inactive means the rest
Answer with one of the outcomes active, inactive

>>> qualitative_label("Cc1cc(Cl)ccc1NC(=O)c1cc2ccccc2cc1O")
"inactive"
>>> qualitative_label("COc1cc2c(cc1C)NC(=O)/C2=C\\c1cccc(Oc2ccccc2)c1")
"inactive"
>>> qualitative_label("COc1cc(Nc2ccnc(NCCCNc3ccnc4cc(Cl)ccc34)n2)cc(OC)c1")
"inactive"

Recorded call for `O=[N+]([O-])c1c(Br)sc(Br)c1[N+](=O)[O-]` ?
inactive

Answer briefly: the call reported for `Nc1nc(-c2ccc(F)cc2)c(-c2ccc3ncccc3n2)s1` in this assay.
inactive

* * *

Measured TGI values are reported for all entries that follow.
Tested on: MDA-MB-435
Experiment: NCI tumour cell line growth inhibition, 48 h

>>> result("NC1CC2NC3CCCCC3NC2CC1N (configuration not stated)")
"> 100 µM"
>>> result("COc1cc2c(cc1C)NC(=O)/C2=C\\c1cccc(Oc2ccccc2)c1")
"25.9 µM"
>>> result("CCOC(=O)C1OC(C2(C)OC3(OC4(C=CC3O)OC(C(C)C(=O)C(C)C(O)C(C)CC(C)c3c(Cl)cc(C)c(O)c3C(=O)O)C(C)CC4C)C(C)C2OC)CC1O (configuration not stated)")
"1.22 µM"

Field request: TGI | item: `Nc1nc(Cl)cc(NCCC2(CO)CCC2)n1`
> 100 µM

Return reported TGI; argument: `CCCCCCCCCCCCCC[S+](C)C`
4.35 µM

Form field: reported TGI of `O=S(=O)(O)ON=C1c2ccccc2-c2ccccc21`
> 100 µM

Sample `Nc1[nH]c(=S)nc2snnc12` — what was its TGI?
> 100 µM

Would you mind telling me what TGI value was observed for `CCCCCCOP(=O)(OCCCCCC)C(NC(=O)OCC)(C(F)(F)F)C(F)(F)F` ?
> 100 µM

* * *

Test system: 786-0 renal
Assay: NCI tumour cell line growth inhibition, 48 h
The compounds listed here are annotated with their TGI.

Form field: reported TGI of `N#C/C(=C\NC(=S)c1ccncc1)c1nc2ccccc2s1`
> 100 µM

* * *

In this section we review reported TGI values for a set of compounds.
System: COLO 205 colon
Assay: NCI tumour cell line growth inhibition, 48 h

>>> result("CC(=O)N(O)[C@@H]1CC[C@H](n2cnc3c(N)ncnc32)C1")
"> 100 µM"
>>> result("O=C1C2C3C=CC(C2C(=O)N1COP(=O)(O)O)C1C2C(=O)N(COP(=O)(O)O)C(=O)C2C31 (stereo not drawn)")
"> 65 µM"
>>> result("Cn1/c(=N\\S(=O)(=O)c2ccccc2)n(S(=O)(=O)c2ccccc2)c2ccccc21")
"> 100 µM"
>>> result("CC(=O)O[C@]1(C(C)=O)CC[C@H]2[C@@H]3C=C(C)C4=CC(=O)CC[C@]4(C)[C@H]3CC[C@@]21C")
"> 100 µM"
>>> result("CC1C2CC(C(S(=O)(=O)N3CCOCC3)/C2=N\\O)C1(C)C (stereo not drawn)")
"> 100 µM"

GET /values?readout=TGI&item= `CSc1c(C#N)c(N)nc2c(N=Nc3ccc(Cl)cc3)c(N)nn12`
30.3 µM

* * *

System: NCI-H522 lung
Test: NCI tumour cell line growth inhibition, 48 h; in the data active = GI50 below about 0.43 µM; inactive = the rest
Choose the fitting class; nothing outside true (active), false (inactive) is accepted.

These solved cases illustrate the format of a correct answer.
>>> qualitative_label("Nc1nc(-c2ccc(F)cc2)c(-c2ccc3ncccc3n2)s1")
"false"
>>> qualitative_label("COC(=O)C1=C(C)NC(C)=C(C(=O)OC)C1/C=C(Cl)/C=C/c1ccccc1")
"false"
>>> qualitative_label("O=C(Nc1ccccc1)NS(=O)(=O)c1ccc(-n2nc3c(c2-c2ccc(Cl)cc2)Cc2ccccc2-3)cc1")
"false"
>>> qualitative_label("O=[N+]([O-])c1c(Br)sc(Br)c1[N+](=O)[O-]")
"false"
>>> qualitative_label("Cc1cc(Cl)ccc1NC(=O)c1cc2ccccc2cc1O")
"true"

What outcome does the record of this test show for `COc1ccc(Cn2cc3c(c2-c2ccc(OC)cc2)CCc2cnoc2-3)cc1` ?
true
